test system: MDA-MB-231 breast; experiment: NCI-60 one-dose screen, 48 h; settings: 10 µM unless noted
The panel holds about 83,000 compounds, 20% with a hit somewhere; the sample as a whole holds those more often. Activity calls are given as the source filed them. The calls were made as follows: active = growth percent below 10; inactive = the rest.
Outcome (select one): 1.0 for active, 0.0 for inactive

Name the outcome recorded for COc1ccc(OC)c(Nc2nnc(-c3ccc(Cl)cc3)o2)c1 in the assay. 0.0

Called result for COc1cccc(NC(=O)c2cccc(C3CCc4c(cc(OC)c(OC)c4OC)O3)c2)c1 (stereo not drawn) 0.0

What did this assay record as the result for Fc1ccc2c(c1)c(-c1nc(-c3c[nH]c4ncccc34)cs1)cn2CCCN1CCOCC1 ? 0.0

For O=S(=O)(c1ccccc1)N1CCCN(c2nc(-c3ccccc3)nc3nc(-c4ccccc4)oc23)CC1 , which call appears in the assay record? 0.0

Hi team, can someone confirm the assay call for COc1ccc(Cn2cc(C(=O)N=Nc3c(O)[nH]c4c(Cl)cccc34)nn2)cc1 ? 0.0

Write down the call the test reported for this molecule. Item: CCOC(=O)c1c2c(n3ccccc13)C(=O)c1ncccc1C2=O 0.0

Dear colleague, could you share the recorded outcome for CC(=O)Nc1c(Cl)cc(Cl)c2c1Cc1cc([N+](=O)[O-])ccc1-2 when you have a moment? 0.0

Outcome? Nc1c(C(=O)O)cc(Cl)cc1[N+](=O)[O-] 0.0

Record lookup: outcome of this test for Clc1ccc(-c2cn3ccsc3n2)c(Cl)c1Cl ? 0.0

Per the records of this test, what outcome belongs to COc1cc(/C=C2\C(=O)N(c3c(Cl)cccc3Cl)c3ccccc32)cc(OC)c1OCCCCCCn1c2ccccc2c(=O)c2ccccc21 ? 0.0

Record lookup: outcome of this test for Cc1nn(-c2ccccc2)c(N2CCCCC2)c1/C=N/NC(=O)Cn1c(=O)sc2ccccc21 ? 0.0

Entry Cn1ccnc1C(=O)/C=C/c1ccc(C(=O)Nc2ccc(F)cc2)cc1 : call = ? 0.0

Lab log entry: C/C(=N\O)C(=O)NCCCCCC(=O)Nc1ccccc1 — outcome as called in the assay? 0.0

Record lookup: outcome of this test for NC(=O)c1c(NC(=O)c2ccc(Cl)cc2)sc2c1CCC(=O)C2 ? 0.0

// param item: O=C1NC(=Nc2ccc(O)cc2)S/C1=C\c1cccs1 ; yields the recorded call 0.0

How was CCCCc1oc2ccccc2c1C(=O)c1ccc(O)cc1 classified in this test? 0.0

# outcome recorded in this test, key = CCN1C(=O)N(CC)C2C1NN=C1SCC(=O)N12 (stereo not drawn) 0.0

Please indicate how the test categorized Cc1cc2nc3c4ccccc4n(CCN(C)C)c3nc2cc1C . 1.0

Name the outcome recorded for Cn1c(O)c(C(/C=C/c2ccccc2)=Nc2ccccc2N)c(=O)n(C)c1=O in the assay. 0.0

Which outcome did this test record for the molecule COc1ccc2c(c1)c(-c1nc(-c3cn(C)c4ncccc34)cs1)cn2CCO ? 0.0

Which result was noted for this molecule in the test: CCSC1=CC(=O)c2ccccc2C1=O 1.0

Can you look up the reported call for CCCCCCCCCCCCCCCCCCOc1ccccc1CC(=O)NCC[N+]1(C)CCOCC1 for me? 0.0

Outcome? c1ccc(CNc2ccc3nc(CCC4CCCCC4)[nH]c3c2)cc1 0.0
